# system: TRβ (Homo sapiens, UniProt P10828)
# Construct: expressed in transfected cells; host or cells: HEK293
# protocolText: Thyroid-hormone reporter-gene assay (TRβ-Gal4 hybrid, luciferase, HEK293)
# Format: cell-based
# conditionNotes: calculated as EC50 (TRα)/EC50 (TRβ); Table 2
readoutKind: T3-SI (selectivity index)

molecule: Cc1c(F)c(OCC(=O)O)cc(Cl)c1Cc1ccc(O)c(C(C)C)c1
T3-SI (selectivity index): +++ (T3-SI>30×)
//
molecule: CC(C)c1c(O)ccc(Cc2c(Cl)cc(OCC(=O)O)cc2Cl)c1Cl
T3-SI (selectivity index): ++ (3×<T3-SI≤30×)
//
molecule: CCCC(c1ccc(F)cc1)c1cc(Cc2c(Cl)cc(OCC(=O)O)c(F)c2Cl)ccc1O (centres unmarked)
T3-SI (selectivity index): +++ (T3-SI>30×)
//
molecule: C=Cc1cc(OCC(=O)O)c(F)c(Cl)c1Cc1ccc(O)c(C(C)C)c1
T3-SI (selectivity index): +++ (T3-SI>30×)
//
molecule: Cc1cc(OCC(=O)O)cc(C(C)C)c1Cc1ccc(O)c(C(C)C)c1F
T3-SI (selectivity index): ++ (3×<T3-SI≤30×)

// field: T3-SI (selectivity index); key: `CCOC(=O)COc1cc(Cl)c(Cc2ccc(O)c(C(C)C)c2)c(Cl)c1OC` ; value = ++ (3×<T3-SI≤30×)

// field: T3-SI (selectivity index); key: CCC(c1ccc(F)cc1)c1c(O)ccc(Cc2c(Cl)cc(OCC(=O)O)cc2Cl)c1F (centres unmarked) ; value = ++ (3×<T3-SI≤30×)

* * *

# system: TRα (Homo sapiens)
# Construct: expressed in transfected cells; host or cells: HEK293
# Sequence (P10827 163-410 isoform P10827-2 limits assumed): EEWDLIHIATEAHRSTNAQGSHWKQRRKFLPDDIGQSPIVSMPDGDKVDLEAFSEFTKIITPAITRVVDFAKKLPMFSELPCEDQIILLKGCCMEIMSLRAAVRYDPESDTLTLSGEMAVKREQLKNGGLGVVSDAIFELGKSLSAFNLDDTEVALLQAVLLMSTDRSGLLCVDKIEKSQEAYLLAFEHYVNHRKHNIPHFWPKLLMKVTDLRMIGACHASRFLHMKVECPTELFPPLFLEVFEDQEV
# protocolText: Thyroid-hormone reporter-gene assay (TRα-Gal4 hybrid, luciferase, HEK293)
# Format: cell-based
# conditionNotes: reporter cells, 24 hr incubation; Table 2; read-out: TRα (EC50)
Here, each record is paired with measured EC50 data.

molecule: CC(c1ccc(F)cc1)c1c(O)ccc(Cc2c(Cl)cc(OCC(=O)O)cc2Cl)c1F (stereo not shown)
EC50: 10 to 100 nM

// field: EC50; key: `O=C(O)COc1cc(Cl)c(Cc2ccc(O)c(-c3cc(OC(F)F)ccc3F)c2F)c(Cl)c1F` ; value = > 1000 nM

// field: EC50; key: `Cc1cc(OCC(=O)O)cc(C)c1Cc1ccc(O)c(-c2cccc(OC(F)F)c2)c1F` ; value = > 1000 nM

// field: EC50; key: `CC(C)c1c(O)ccc(Cc2c(Cl)cc(OCC(=O)O)cc2Br)c1F` ; value = < 10 nM

* * *

# system: TRβ (Homo sapiens)
# Construct: expressed in transfected cells; host or cells: HEK293
# Sequence (P10828 217-461 limits assumed): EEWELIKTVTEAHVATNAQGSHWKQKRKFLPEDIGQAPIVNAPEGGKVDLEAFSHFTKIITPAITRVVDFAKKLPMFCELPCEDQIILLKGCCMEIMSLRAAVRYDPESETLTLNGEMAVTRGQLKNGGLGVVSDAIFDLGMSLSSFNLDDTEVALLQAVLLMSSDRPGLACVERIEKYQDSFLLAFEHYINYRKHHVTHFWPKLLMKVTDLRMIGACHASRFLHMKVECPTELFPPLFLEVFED
# protocolText: Thyroid-hormone reporter-gene assay (TRβ-Gal4 hybrid, luciferase, HEK293)
# Format: cell-based
# conditionNotes: calculated as EC50 (TRα)/EC50 (TRβ); Table 2

molecule: O=C(O)COc1cc(Cl)c(Cc2ccc(O)c(-c3cccc(OC(F)F)c3)c2F)c(Cl)c1 [Compound 24]
T3-SI (selectivity index): ++ (3×<T3-SI≤30×)
--
molecule: O=C(O)COc1cc(Cl)c(Cc2ccc(O)c(Cc3ccc(F)cc3)c2F)c(Cl)c1 [Compound 28]
T3-SI (selectivity index): ++ (3×<T3-SI≤30×)
--
molecule: Cc1cc(OCC(=O)O)cc(Cl)c1Cc1ccc(O)c(C(C)C)c1F [Compound 36]
T3-SI (selectivity index): ++ (3×<T3-SI≤30×)

* * *

# system: TRα (Homo sapiens, UniProt P10827)
# Construct: expressed in transfected cells; host or cells: HEK293
# protocolText: Thyroid-hormone reporter-gene assay (TRα-Gal4 hybrid, luciferase, HEK293)
# Format: cell-based
# conditionNotes: reporter cells, 24 hr incubation; Table 2; read-out: TRα (EC50)
readoutKind: EC50

For orientation, consider the following solved cases.
compound: Cc1cc(OCC(=O)O)cc(C(C)C)c1Cc1ccc(O)c(C(C)C)c1F [Compound 13]
system: TRα (Homo sapiens, UniProt P10827)
readoutKind: EC50
measured: < 10 nM
--
compound: Cc1cc(OCC(=O)O)c(F)c(C)c1Cc1ccc(O)c(C(C)C)c1 [Compound 58]
system: TRα (Homo sapiens, UniProt P10827)
readoutKind: EC50
measured: 100 to 1000 nM
--
compound: CCCC(c1ccc(F)cc1)c1c(O)ccc(Cc2c(Cl)cc(OCC(=O)O)cc2Cl)c1F (centres unmarked) [Compound 34]
system: TRα (Homo sapiens, UniProt P10827)
readoutKind: EC50
measured: > 1000 nM
--
compound: Cc1cc(OCC(=O)O)c(F)c(Cl)c1Cc1ccc(O)c(C(C)C)c1 [Compound 115]
system: TRα (Homo sapiens, UniProt P10827)
readoutKind: EC50
measured: 100 to 1000 nM
--
compound: O=C(O)COc1cc(Cl)c(Cc2ccc(O)c(-c3cc(C(F)(F)F)ccc3F)c2F)c(Cl)c1 [Compound 25]
system: TRα (Homo sapiens, UniProt P10827)
readoutKind: EC50
measured: 10 to 100 nM

Record CCc1cc(OCC(=O)Nc2onc(C)c2C)cc(Cl)c1Cc1ccc(O)c(C(C)C)c1F [Compound 142] ; system TRα (Homo sapiens, UniProt P10827); EC50 = 100 to 1000 nM

Record CNC(=O)COc1cc(C)c(Cc2ccc(O)c(C(C)C)c2)c(Cl)c1F [Compound 143] ; system TRα (Homo sapiens, UniProt P10827); EC50 = 100 to 1000 nM

Record Cc1cc(OCC(=O)O)c(F)c(C)c1Cc1ccc(O)c(C(C)C)c1F [Compound 93] ; system TRα (Homo sapiens, UniProt P10827); EC50 = 100 to 1000 nM

* * *

# system: TRβ (Homo sapiens, UniProt P10828)
# Construct: expressed in transfected cells; host or cells: HEK293
# protocolText: Thyroid-hormone reporter-gene assay (TRβ-Gal4 hybrid, luciferase, HEK293)
# Type: cell-based
# conditionNotes: reporter cells, 24 hr incubation; Table 2; read-out: TRβ (EC50)
pEC50: −log10 of the molar value.
readoutKind: pEC50

For orientation, consider the following solved cases.
compound: C=Cc1c(F)c(OCC(=O)O)cc(Cl)c1Cc1ccc(O)c(C(C)C)c1
readoutKind: pEC50
measured: 7.00 to 8.00
--
compound: CC(C)c1cc(Cc2c(C(C)C)cc(OCC(=O)O)c(F)c2Cl)ccc1O
readoutKind: pEC50
measured: 7.00 to 8.00
--
compound: CC(c1ccc(F)cc1)c1c(O)ccc(Cc2c(Cl)cc(OCC(=O)O)cc2Cl)c1F (stereo not shown)
readoutKind: pEC50
measured: > 8.00
--
compound: CCC(c1ccc(F)cc1)c1c(O)ccc(Cc2c(Cl)cc(OCC(=O)O)cc2Cl)c1F (stereo not shown)
readoutKind: pEC50
measured: 7.00 to 8.00
--
compound: Cc1cc(OCC(=O)O)cc(C)c1Cc1ccc(O)c(C(C)C)c1F
readoutKind: pEC50
measured: 6.00 to 7.00
--
compound: O=C(O)COc1cc(Cl)c(Cc2ccc(O)c(-c3cc(OC(F)F)ccc3F)c2F)c(Cl)c1
readoutKind: pEC50
measured: 7.00 to 8.00
--
compound: CCc1cc(OCC(=O)Nc2onc(C)c2C)cc(Cl)c1Cc1ccc(O)c(C(C)C)c1F
readoutKind: pEC50
measured: 7.00 to 8.00
--
compound: CCc1cc(OCC(=O)O)cc(Cl)c1Cc1ccc(O)c(C(C)C)c1F
readoutKind: pEC50
measured: 7.00 to 8.00
--
compound: Cc1cc(OCC(=O)O)c(F)c(C)c1Cc1ccc(O)c(C(C)C)c1
readoutKind: pEC50
measured: 7.00 to 8.00

// field: pEC50; key: `CC(C)c1c(O)ccc(Cc2c(Cl)cc(OCC(=O)O)c(F)c2C(C)C)c1F` ; value = 7.00 to 8.00
